Tested on: HCK;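 note: KINOMEscan kinase panel screen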
Condition Context: concentration: 1 μM, replicates: in singlicate; n = 1
I'd appreciate it if you could supply %Inh values for the items below.
One number for each entry, in %.

Use the examples below as a reference point.
| Molecule | Measurement Target | Uom | Recorded Number |
| --- | --- | --- | --- |
| CN(C)c1ncnc2nc[nH]c12 | HCK | % | 3 |
| CN(c1ccc(NC(=O)Nc2cccc(Cl)c2)cc1)c1ccnc(N)n1.Cl | HCK | % | 0 |
| Cn1cc(-c2ccc3c(c2)CCN3C(=O)Cc2cc(F)cc(F)c2F)c2c(N)ncnc21 | HCK | % | 0 |

Quick one: give me %Inh for each item below, same order please.
1. CC(C)NCC(Cc1ccccc1)NC(=O)c1cc(Br)c(-c2ccnc3[nH]ccc23)s1.Cl.Cl (centres unmarked)
2. Nc1ncc(-c2cn[nH]c2)c2scc(-c3ccc4c(c3)CCN4C(=O)Cc3ccccc3)c12

**A:**
1. 0
2. 92.6
